# Protocol Text: Luminescence Cell-Based Dose Confirmation HTS to Identify Activators of 5'UTR Stem-Loop Driven Alpha-Synuclein mRNA Translation in H4 Neuroglioblastoma Cells. [Related pubchem assays: 1829 (Project Summary), 1814 (Primary HTS)]
# Type: functional
Calls of active or inactive are those of the source.
Field: EC50. Provide a value for each of the compounds that follow.

Please give the documented EC50 of COc1ccc2cc(C(=O)N3CCN(C)CC3)[nH]c2c1
13.3 µM (active)

Please give the documented EC50 of O=C(COC(=O)Cn1cnc2ccccc21)Nc1cc2c(cc1Cl)C(=O)c1ccccc1C2=O
< 0.1 µM (active)

Please give the documented EC50 of O=C1Nc2cc(Cl)c(Cl)cc2N(O)N1c1ccc(Cl)cc1
> 120 µM (not active)

Please give the documented EC50 of Fc1ccccc1Nc1nc2ccccc2n2nnnc12
26.2 µM (active)

====

# System Under Test: Carboxy-terminal domain RNA polymerase II polypeptide A small phosphatase 1 (Homo sapiens)
# Sequence (Q9GZU7 whole entry): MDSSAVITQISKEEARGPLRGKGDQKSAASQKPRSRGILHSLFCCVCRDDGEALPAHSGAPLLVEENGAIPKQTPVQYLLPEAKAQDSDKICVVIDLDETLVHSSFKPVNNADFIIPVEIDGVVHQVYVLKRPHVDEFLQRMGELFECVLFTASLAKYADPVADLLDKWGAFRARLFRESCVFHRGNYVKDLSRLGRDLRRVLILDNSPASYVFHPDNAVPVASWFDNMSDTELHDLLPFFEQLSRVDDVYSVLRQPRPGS
# Protocol Text: CTDSP1 inhibitors, concentration-response, biochemical, absorbance readout, ultra-high-throughput screen actives (AID 540297)
# Type: functional
The source made the active and inactive calls.
Readout Kind: IC50

Please give the documented IC50 of Cc1nnc(SCC2=C(C(=O)O)N3C(=O)C(NC(=O)Cn4nc(C(F)F)cc4C)C3SC2)s1 (stereo unspecified)
7.83 µM (active)

Please give the documented IC50 of Cc1ccc(S(=O)(=O)N2CCN(C(=O)/C=C/c3ccco3)CC2)cc1
10.2 µM (active)

Please give the documented IC50 of O=C1NC(=S)NC(=O)C1=Cc1ccc(OCC(=O)N2CCCC2)cc1
9 µM (active)

Please give the documented IC50 of Cc1noc(C)c1NC(=O)N(C)C[C@@H]1Oc2c(NC(=O)c3ccncc3)cccc2C(=O)N([C@H](C)CO)C[C@@H]1C
7.66 µM (active)

Please give the documented IC50 of Cc1c(CCC(=O)O)c(=O)oc2cc(OCc3ccc(Br)cc3)ccc12
7.23 µM (active)

Please give the documented IC50 of CNc1[nH]c(=O)[nH]c(=O)c1N=Nc1cc(Cl)ccc1Cl
11.6 µM (active)

====

Field: IC50. Provide a value for each of the compounds that follow.
# System Under Test: Orexin receptor type 2 (Homo sapiens, UniProt O43614)
# Sequence (O43614 whole entry): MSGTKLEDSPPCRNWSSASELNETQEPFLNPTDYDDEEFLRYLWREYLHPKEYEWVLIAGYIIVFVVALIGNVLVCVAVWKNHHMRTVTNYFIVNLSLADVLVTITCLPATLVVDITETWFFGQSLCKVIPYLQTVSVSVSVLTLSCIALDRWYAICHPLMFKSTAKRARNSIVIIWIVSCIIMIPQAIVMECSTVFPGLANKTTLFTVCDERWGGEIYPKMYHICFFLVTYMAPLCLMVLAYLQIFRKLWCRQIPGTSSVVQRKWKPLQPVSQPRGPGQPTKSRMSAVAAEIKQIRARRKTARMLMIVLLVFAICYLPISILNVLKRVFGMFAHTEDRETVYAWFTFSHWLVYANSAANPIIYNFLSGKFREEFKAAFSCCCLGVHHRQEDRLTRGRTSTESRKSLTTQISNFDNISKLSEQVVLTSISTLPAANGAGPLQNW
# Protocol Text: Counterscreen assay for antagonists of the orexin 1 receptor (OX1R; HCRTR1): Fluorescence-based cell-based dose response assay for antagonists of the orexin 2 receptor (OX2R; HCRTR2), run by assay provider.
# Type: functional
Calls of active or inactive are those of the source.

Please give the documented IC50 of CC(C)(O)c1cc2ccc(C#Cc3ccsc3)cc2c(=O)o1
> 88.8 µM (inactive)

Please give the documented IC50 of O=C(N=Nc1c(O)[nH]c2ccccc12)c1cccc(S(=O)(=O)Nc2ccccc2Cl)c1
> 88.8 µM (inactive)

Please give the documented IC50 of Cc1ccnc2ccc(-c3nc4ccccc4o3)cc12
> 88.8 µM (inactive)

Please give the documented IC50 of COc1ccc(CN2CC[C@H]3C=CC[C@@H](C(=O)Nc4ccc(Cl)c(C(F)(F)F)c4)[C@H]3C2=O)cc1OC
> 88.8 µM (inactive)
